Biological target: T1, murine CD19 protein (murine, UniProt P25918 17-287, limits assumed)
T1 construct: bought protein; also called commercial murine CD19
T1 sequence (looked up): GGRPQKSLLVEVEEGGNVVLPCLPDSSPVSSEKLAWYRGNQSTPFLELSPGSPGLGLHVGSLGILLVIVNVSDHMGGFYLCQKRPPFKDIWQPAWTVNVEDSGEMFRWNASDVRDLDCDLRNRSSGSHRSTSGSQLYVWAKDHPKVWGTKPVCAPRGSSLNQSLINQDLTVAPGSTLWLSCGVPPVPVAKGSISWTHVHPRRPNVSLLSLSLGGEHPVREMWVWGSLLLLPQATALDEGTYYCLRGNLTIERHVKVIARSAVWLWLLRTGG
Assay: ELISA, coated murine CD19
Method: Human CD19-his protein (purchased from ACROBiosystems, catalog number: CD9-H52H2) was diluted with PBS to a final concentration of 4 μg/mL, and then added to a 96-well ELISA plate at 100 μl/well. […] The OD450 nm values were read by an ELISA microplate reader (Multimode Plate Reader, EnSight, purchased from Perkin Elmer). […]
PROPERTY LABEL: binding result

{"BINDER": "F3.81.2 (antibody, human IgG1, V domains shown, human-murine chimeric antibody, human IgG1) VH: QVQLQQPGAELVMPGASVKLSCKASAYTFTNYWMHWVKQRPGHGLEWIGEIDPSDSYTDYNQNFKAKATLTVDKSSSTAYMQLSSLTSEDSAVYYCARLMGRYFDVWGTGTTVTVSS VL: DIVMTQSHKFMSTSVGDRVSITCKASQDVSAAVAWYQQKPGQSPKLLINSASYRYTGVPDRFTGSGSGTDFTFTISSVQAEDLAVYYCQQHYSTPLTFGAGTKLELR", "PROPERTY LABEL": "binding result", "ASSAY RESULT": "no binding"}
{"BINDER": "F4.49.11 (antibody, human IgG1, V domains shown, human-murine chimeric antibody, human IgG1) VH: DVQLRASGPGLVKPSQSLSLTCSVTGYSITSGYYWNWIRQFPGNKLEWMGCISYDGTNNYNPSLKNRISFTRDTSKNQFFLNLNSVTTEDSATYYCARRVYYRYDGVVDYWGQGTSVTVSS VL: ENVLTQSPAIMSASPGEKVTMTCSASSSVSYIHWYQQKSSTAPKLWIYDTSKLASGVPGRFSGSRSRNSYSLTISSMEAEDVATYYCFQGSGYPLTFGSGTKLEIK", "PROPERTY LABEL": "binding result", "ASSAY RESULT": "no binding"}
{"BINDER": "F5.7.1 (antibody, human IgG1, V domains shown, human-murine chimeric antibody, human IgG1) VH: QVTLKESGPGILQPSQTLSLTCSFSGFSLTTFGMGVGWIRQPSGKGLEWLTHIWWDDDKYYNPALKSRLTISKDTSKNQVFLRIANVDTADTATYYCARVITTGVPYFDYWGQGTTLTVSS VL: ENVLTQSPAIMSASPGEKVTMTCRASSSVSSSYLYWYQQKSGASPKLWISSTSNLASGVPARFSGSGSGTSYSLTINSVEAEDAATYYCQQYSGYPWTFGGGTKLEIK", "PROPERTY LABEL": "binding result", "ASSAY RESULT": "no binding"}

# credit: patent US20250042994A1
